Molecular target: EGFR (L858R) (Homo sapiens, UniProt P00533, L858R)
Construct: purchased Promega V5322
Sequence (P00533 25-1210 L858R): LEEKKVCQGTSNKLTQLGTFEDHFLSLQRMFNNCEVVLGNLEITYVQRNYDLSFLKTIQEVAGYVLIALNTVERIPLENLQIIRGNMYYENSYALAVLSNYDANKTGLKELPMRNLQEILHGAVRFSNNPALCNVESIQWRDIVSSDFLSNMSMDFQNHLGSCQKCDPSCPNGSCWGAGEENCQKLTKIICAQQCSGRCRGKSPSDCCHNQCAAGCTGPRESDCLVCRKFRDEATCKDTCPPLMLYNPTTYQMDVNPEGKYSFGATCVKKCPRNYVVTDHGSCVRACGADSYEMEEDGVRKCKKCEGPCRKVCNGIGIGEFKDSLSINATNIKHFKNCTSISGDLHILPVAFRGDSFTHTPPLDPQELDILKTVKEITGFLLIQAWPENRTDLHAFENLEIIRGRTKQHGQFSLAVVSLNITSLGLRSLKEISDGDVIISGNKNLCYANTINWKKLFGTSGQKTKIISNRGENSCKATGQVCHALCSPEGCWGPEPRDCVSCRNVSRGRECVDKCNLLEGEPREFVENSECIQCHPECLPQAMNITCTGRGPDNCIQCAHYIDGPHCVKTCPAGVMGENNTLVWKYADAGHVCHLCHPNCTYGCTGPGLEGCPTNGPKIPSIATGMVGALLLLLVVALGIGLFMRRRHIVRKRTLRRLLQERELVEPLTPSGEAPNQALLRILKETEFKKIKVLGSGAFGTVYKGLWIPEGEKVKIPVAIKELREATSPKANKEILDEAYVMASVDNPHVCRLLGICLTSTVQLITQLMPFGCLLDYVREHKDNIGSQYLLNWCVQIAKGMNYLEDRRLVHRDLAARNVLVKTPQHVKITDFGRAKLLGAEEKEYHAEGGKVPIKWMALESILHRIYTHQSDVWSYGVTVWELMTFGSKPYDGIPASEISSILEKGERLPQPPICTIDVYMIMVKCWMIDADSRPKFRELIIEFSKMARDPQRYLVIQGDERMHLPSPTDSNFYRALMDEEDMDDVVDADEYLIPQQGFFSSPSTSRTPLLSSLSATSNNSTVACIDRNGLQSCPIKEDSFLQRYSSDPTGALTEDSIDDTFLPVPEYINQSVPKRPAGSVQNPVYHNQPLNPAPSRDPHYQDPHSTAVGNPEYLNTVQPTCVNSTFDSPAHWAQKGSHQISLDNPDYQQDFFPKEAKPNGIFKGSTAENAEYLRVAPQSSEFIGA
Experiment: EGFR tyrosine kinase inhibiting activity, ADP-Glo (EGFR (L858R) Kinase Enzyme System)
Type: biochemical
Conditions: read-out: EGFR Kinase inhibition: IC50 L858R
quantity: log10 of IC50 (log10 of the value in nM)
Heads up: the numbers are on a log10 scale; they represent IC50 in nM.

Completed entries (count: 9):
molecule="COC[C@@H](Nc1ncnc2sc3c(c12)CCN(C(=O)/C=C/CN1CCN(CCF)CC1)C3)c1ccccc1 [P7]" system_name="EGFR (L858R) (Homo sapiens, UniProt P00533, L858R)" measurement=1.71
molecule="O=C(/C=C/CN1CCN(CCF)CC1)N1CCc2c(sc3ncnc(Nc4cccc(Br)c4)c23)C1 [P8]" system_name="EGFR (L858R) (Homo sapiens, UniProt P00533, L858R)" measurement=3.14
molecule="O=C(/C=C/CN1CCN(CCOCCOCCOCCF)CC1)N1CCc2c(sc3ncnc(N[C@H](CO)c4ccccc4)c23)C1 [P10]" system_name="EGFR (L858R) (Homo sapiens, UniProt P00533, L858R)" measurement=1.72
molecule="C[C@@H](Nc1ncnc2sc3c(c12)CCN(C(=O)/C=C/CN1CCN(CCF)CC1)C3)c1ccccc1 [P5]" system_name="EGFR (L858R) (Homo sapiens, UniProt P00533, L858R)" measurement=1.43
molecule="O=C(/C=C/CN1CCN(CCF)CC1)N1CCc2c(sc3ncnc(N[C@H](CO)c4ccccc4)c23)C1 [P2]" system_name="EGFR (L858R) (Homo sapiens, UniProt P00533, L858R)" measurement=0.95
molecule="O=C(CCN1CCN(CCF)CC1)N1CCc2c(sc3ncnc(N[C@H](CO)c4ccccc4)c23)C1 [P4]" system_name="EGFR (L858R) (Homo sapiens, UniProt P00533, L858R)" measurement=3.26
molecule="OC[C@@H](Nc1ncnc2sc3c(c12)CCN(CCF)C3)c1ccccc1 [P1]" system_name="EGFR (L858R) (Homo sapiens, UniProt P00533, L858R)" measurement=3.53
molecule="O=C(/C=C/CN1CCN(CCOCCF)CC1)N1CCc2c(sc3ncnc(N[C@H](CO)c4ccccc4)c23)C1 [P9]" system_name="EGFR (L858R) (Homo sapiens, UniProt P00533, L858R)" measurement=1.49
molecule="O=C(CN1CCN(CCF)CC1)N1CCc2c(sc3ncnc(N[C@H](CO)c4ccccc4)c23)C1 [P3]" system_name="EGFR (L858R) (Homo sapiens, UniProt P00533, L858R)" measurement=3.43

As a next step, examine the molecule that follows.
Asked: Requested field: log10 of IC50. Item: O=C(/C=C/CN1CCN(CCF)CC1)N1CCc2c(sc3ncnc(O[C@@H](c4ccccc4)C(F)(F)F)c23)C1 [P6]
Given back: 2.53
